Biological target: PD-1 (Homo sapiens (Human)) (UniProt Q15116)
Sequence (Q15116 21-288 limits assumed): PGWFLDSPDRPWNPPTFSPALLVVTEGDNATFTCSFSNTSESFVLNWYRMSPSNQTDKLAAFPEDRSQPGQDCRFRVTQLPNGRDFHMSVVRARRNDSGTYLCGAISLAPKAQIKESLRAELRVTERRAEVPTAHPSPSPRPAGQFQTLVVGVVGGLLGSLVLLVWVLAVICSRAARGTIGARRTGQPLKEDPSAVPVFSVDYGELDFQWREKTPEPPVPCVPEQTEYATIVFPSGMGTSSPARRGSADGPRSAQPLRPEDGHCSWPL
Assay: flow cytometry, Jurkat/PD-1 cells; vs wildtype PD-L2 IgV-Fc
measured-endpoint: Fold increase over wildtype PD-L2 IgV-Fc (fold)
Give your result in fold as a bare value.

Below, each entry is followed by its recorded Fold increase over wildtype PD-L2 IgV-Fc result.
binder: variant PD-L2 IgV-Fc I13V, H15Q, V31A, N45S, Q82R, V89D (Fc fusion, not shown: a dimerising Fc or GST; small tags and cut ends) FTVTVPKELYIVEQGSNVTLECNFDTGSHANLGAITASLQKVESDTSPHRERATLLEEQLPLGKASFHIPQVQVRDEGQYRCIIIYGDAWDYKYLTLK
Fold increase over wildtype PD-L2 IgV-Fc [fold]: 6.91

binder: variant PD-L2 IgV-Fc G28V, Q72H, R76G, I86T (Fc fusion, not shown: a dimerising Fc or GST; small tags and cut ends) FTVTVPKELYIIEHGSNVTLECNFDTVSHVNLGAITASLQKVENDTSPHRERATLLEEQLPLGKASFHIPHVQVGDEGQYQCIITYGVAWDYKYLTLK
Fold increase over wildtype PD-L2 IgV-Fc [fold]: 0.57

binder: variant PD-L2 IgV-Fc I13V, H15Q, T47A, Q72H, R76G (Fc fusion, not shown: a dimerising Fc or GST; small tags and cut ends) LFTVTVPKELYIVEQGSNVTLECNFDTGSHVNLGAITASLQKVENDASPHRERATLLEEQLPLGKASFHIPHVQVGDEGQYQCIIIYGVAWDYKYLTLK
Fold increase over wildtype PD-L2 IgV-Fc [fold]: 7.46

Next up:
Prompt: Fold increase over wildtype PD-L2 IgV-Fc for variant PD-L2 IgV-Fc N24D (Fc fusion, not shown: a dimerising Fc or GST; small tags and cut ends) LFTVTVPKELYIIEHGSNVTLECDFDTGSHVNLGAITASLQKVENDTSPHRERATLLEEQLPLGKASFHIPQVQVRDEGQYQCIIIYGVAWDYKYLTLK ?
Completion: 0.14
